Biological target: T1, human BR3 extracellular domain (human, UniProt Q96RJ3 1-61)
T1 construct: biotinylated where used as tracer; also called hBR3-ECD; BR3-ECD
Experiment: phage competition ELISA
Value kind: IC50

{"columns": ["Binder", "Test result"],
 "data": [
  ["V3-46s-13 phage clone (Fab, V domains shown) VH: EVQLVESGGGLVQPGGSLRLSCAASGFTISSSSIHWVRQAPGKGLEWVAWVLPSVGFTDYADSVKGRFTISADTSKNTAYLQMNSLRAEDTAVYYCARRVCYNRLGVCAGGMDYWGQGTLVTVSS VL: DIQMTQSPSSLSASVGDRVTITCRASEEIATAVAWYQQKPGKAPKLLIFAASYLFSGVPSRFSGSGSGTDFTLTISSLQPEDFATYYCQQSQVAPPTFGQGTKVEIK", "0.08 nM"]
]}
